Below, each of the compounds is paired with its reported pKd value.
ASSAY SYSTEM: E. coli TrmD (Escherichia coli, UniProt P0A873)
Sequence (P0A873 1-255): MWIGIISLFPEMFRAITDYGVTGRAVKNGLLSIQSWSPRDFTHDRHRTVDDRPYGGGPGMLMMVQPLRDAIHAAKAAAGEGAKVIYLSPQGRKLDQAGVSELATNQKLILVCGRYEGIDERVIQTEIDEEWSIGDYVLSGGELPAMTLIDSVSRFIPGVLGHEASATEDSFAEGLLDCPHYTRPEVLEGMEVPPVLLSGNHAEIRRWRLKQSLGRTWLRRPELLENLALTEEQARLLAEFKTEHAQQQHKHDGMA
Note on pKd: it is the negative log10 of concentration, concentration in mol/L.

| COMPOUND | pKd |
| --- | --- |
| Nc1ncnc2c1ncn2[C@@H]1O[C@H](CSCC[C@H](N)C(=O)O)[C@@H](O)[C@H]1O [AdoHcy] | 6.48 |

Lab note: next compound to report on.
Please give measured pKd of the following entry: C[S+](CC[C@H](N)C(=O)O)C[C@H]1O[C@@H](n2cnc3c(N)ncnc32)[C@H](O)[C@@H]1O (some centres unmarked) [AdoMet]
5.96
